molecular target: NADPH oxidase 5 (Homo sapiens); experiment: NOX5-dependent H2O2 signal modulators, primary screen, NOX inhibitor project, cell-based, HEK293-NOX5, Amplex Red fluorescence (AID 1161); details: HEK293-NOX5, ionomycin, 45 min, higher = more signal
Kind request: treat 0.3 as inclusive, so z-score at 0.3 or higher is YES, anything lower is NO.

Compound	Class Label
O=C/C=C/c1ccc(/C=C/c2ccccc2)cc1	YES

## Input Exam item: decide whether the reported z-score for COc1ccc(C(O)C2C=CC3C(=O)N(C)C(=O)C3N2N2CCCCC2)cc1OCc1ccccc1 (stereo not given) is at least 0.3.
## Output YES

----------
test: binders of probe aHhip on microarray, primary screen, stem cell growth factor project, biochemical, small-molecule microarray, fluorescence 635/667 (AID 1087); conditions: higher = more signal;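 also: score merges spot fluorescence at 667nm with spot signal to noise ratio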
# composite z-score per record follows
Lab note: record just the number, no unit beside it.

Study these solved cases before continuing.
Smiles	composite z-score
O=C(CS)NCCCCCNC(=O)[C@H]1C[C@H]2C(=O)N[C@@H](Cc3ccccc3)C(=O)N2[C@H]1c1ccc(O)cc1	-0.0919
COCCOC(=O)N1C(=O)[C@@]2(c3cc(C#CC4=CCCCC4)ccc31)[C@H](C(=O)NC[C@H](O)c1ccccc1)[C@H]1C(=O)O[C@H](c3ccccc3)[C@H](c3ccccc3)N1[C@@H]2c1ccccc1OCCO	0.259

// next item, composite z-score requested
## Input Name the recorded composite z-score for "C[C@]1(C(=O)NCc2ccccc2)c2ccccc2C(=O)N(Cc2cc(C(F)(F)F)cc(C(F)(F)F)c2)[C@H]1c1ccc(CO)cc1" .
## Output -0.359

----------
biological target: Torsin-1A (Homo sapiens); assay: torsin A binders from cell lysate, primary screen, small-molecule microarray, wild-type, 635/667 nm (AID 1149); conditions: COS7 hTOR1A-WT lysate, 635 nm fluorescence, higher = more signal
# composite z-score per record follows
Lab note: record just the number, no unit beside it.

Study these solved cases before continuing.
Compound	composite z-score
Cc1ccc(N2C(=O)c3ccccc3[C@](C)(C(=O)NCC(C)C)[C@@H]2c2ccc(CO)cc2)nc1	-0.458
CN1C2C=C(c3ccc(CO)cc3)C(C3C(=O)N(C(N)=O)C(=O)C32)C1c1cccs1 (configuration not stated)	0.0899
CSCC[C@@H]1NC(=O)CC=C[C@@H](C)COC(=O)[C@H](CCSC)NC(=O)CC=C[C@@H](C)COC1=O	0.138
COc1ccc(-c2ccccc2[C@@H]2N[C@H](C(=O)O)CC[C@H]2C)cc1	0.69
C[N+](C)(C)CCCCNC(=O)[C@H]1C[C@H]2C(=O)NCC(=O)N2[C@H]1c1cccc(OCCO)c1	1.21

## Input Name the recorded composite z-score for "COCCOC(=O)N1C(=O)[C@@]2(c3cc(C#CC4=CCCCC4)ccc31)[C@H](C(=O)NC[C@H](O)c1ccccc1)[C@H]1C(=O)O[C@H](c3ccccc3)[C@H](c3ccccc3)N1[C@@H]2c1ccccc1OCCO" .
## Output 0.453

## Input Name the recorded composite z-score for "COCCCNC(=O)[C@@H]1c2ccccc2C(=O)N(CC23CC4CC(CC(C4)C2)C3)[C@H]1c1ccc(CO)cc1" .
## Output 0.306

----------
test: CREB reporter modulators without forskolin, primary screen, cell-based, PC12, CRE-LacZ reporter, unstimulated (AID 1145); conditions: no forskolin, luminescence, 4.5 h, called active from +8 up or from −8 down
Active and inactive are the calls of the source.
In this exercise, the only acceptable responses are 1.0 (active), 0.0 (inactive)

Solved entries:
> print(dat)
                                     smiles  class.label
1  COC(=O)[C@@]1(Cc2ccc(OC)cc2)[C@H]2c3cc(C(=O)N(C)C)n(CCc4ccc(OC)c(Br)c4)c3C[C@H]2CN1C(=O)c1ccccc1          0.0
2  C=CCC1=C[C@H]2[C@H]([C@@H]3C=C[C@]2(CC=C)C(=O)[C@]32CO2)[C@@]2(CO2)C1=O          0.0

## Input Which outcome did this test record for the compound "Cc1ccc(S[C@]2(C(=O)NC3CC3)CC(=O)N(Cc3cc(C(F)(F)F)cc(C(F)(F)F)c3)[C@@H]2c2ccc(CO)cc2)cc1" ?
## Output 0.0

## Input Which outcome did this test record for the compound "C=C(CCCC)/C(=C/C[C@@H](OC(=O)c1ccncc1)c1ccc(CO)o1)c1cnc2ccccc2c1" ?
## Output 0.0
